method description: Inhibition of bovine liver beta-glucosidase
Set-up: species or system Bos taurus
value type: Ki (nM)
Respond numerically; units are nM and should not be typed.

// query Please report the recorded Ki for `CCCC/N=C1/OC[C@@H]2[C@@H](O)[C@H](O)[C@@H](O)[C@@H](O)N12` .
// result 2200

Values were extracted from ChEMBL document CHEMBL1145620.
